The measurements presented in this section are drawn from a melting point compilation (Tetko et al.).

Each record here notes measured melting point.

Consider the following illustrative entries.
# mol, measured_endpoint, result
data = [
    ("O=C1C=CC(=O)N1c1cccc(C(F)(F)F)c1", "melting point", "67 to 69 °C"),
    ("COc1ccccc1-n1nnnc1S", "melting point", "153 to 155 °C"),
]

Could you now look at the following compound, please?
Field request: melting point | item: O=C(c1ccccc1)c1ccc(Cl)cc1O
75 to 77 °C

* * *

measured_endpoint: melting point

# mol, melting point
data = [
    ("O=C(c1cc(Cl)c(Cl)[nH]1)C(Cl)(Cl)Cl", "129 to 131 °C"),
    ("CC(=O)c1ccc(OCc2ccccc2C)cc1", "98 to 100 °C"),
]

Field request: melting point | item: O=C1NC2(CCCCC2)NC2=C1CCCC2
193 to 195 °C

Field request: melting point | item: CCN(Cc1ccccc1)c1ccc(C(=O)O)cc1
183 to 185 °C

* * *

Each record here notes measured melting point.

# molecule, result
measured = [
    ("Cc1sc(N)c(C(=O)O)c1C", "120 to 122 °C"),
    ("COc1ccc2c(c1)OCC(C#N)=C2", "93 to 95 °C"),
]

Could you now look at the following molecule, please?
Field request: melting point | item: CC(C)(C)C(=O)N1CCOC(C(=O)O)C1 (stereo not drawn)
148 to 150 °C

* * *

Each record here notes measured melting point.

Consider the following illustrative entries.
# compound, measured_endpoint, result
data = [
    ("O=C(O)Cn1ccc([N+](=O)[O-])n1", "melting point", "172 to 174 °C"),
    ("O=C(O)c1ccc(OCC(=O)C2CC2)cc1", "melting point", "157 to 159 °C"),
    ("Nc1nccnc1CO", "melting point", "115 to 117 °C"),
    ("COc1cc(F)c(S(=O)(=O)Cl)c(F)c1", "melting point", "53 to 55 °C"),
    ("NCCNS(=O)(=O)c1cc(Br)ccc1Br", "melting point", "170 to 172 °C"),
    ("CC(Cl)C(=O)NC(C)c1ccc(Cl)cc1 (configuration not stated)", "melting point", "127 to 129 °C"),
]

Field request: melting point | item: CCC(=O)c1c(C)nn(C)c1C
50 to 52 °C

Field request: melting point | item: NC(=O)c1cccc2[nH]ccc12
138 to 140 °C

Field request: melting point | item: CCOc1ccc(OCC(=O)O)cc1
125 to 130 °C

Field request: melting point | item: COc1cc(C)c(C(=O)O)cc1OC
146 to 148 °C

Field request: melting point | item: NS(=O)(=O)c1ccc(CC(=O)O)cc1
169 to 171 °C

Field request: melting point | item: CCOC(=O)C(=O)c1nc2ccccc2n1C
116 to 118 °C

Field request: melting point | item: C=CCN(CC(=O)O)S(=O)(=O)c1ccc(Cl)cc1
136 to 138 °C

Field request: melting point | item: Cc1ccccc1-n1c(C)cc(C(=O)CCl)c1C
65 to 67 °C

Field request: melting point | item: COc1ccc(CNc2ccc3[nH]c(=O)[nH]c3c2)cc1
254 to 256 °C

* * *

Each record here notes measured melting point.

# molecule, result
rows = [
    ("O=C(O)c1cccc(N2CCCNC2=O)c1", "277 to 279 °C"),
]

Field request: melting point | item: Cc1cc(C)cc(OCCN(C)C(=O)CCl)c1
70 to 72 °C

Field request: melting point | item: Nc1ccc2ccoc2c1
51 to 53 °C

Field request: melting point | item: Cn1c(=O)ccn(CC(=O)O)c1=O
240 to 242 °C

Field request: melting point | item: O=C(O)c1sc2cccc([N+](=O)[O-])c2c1Cl
219 to 221 °C
